protocolSummary: in vitro
conditionInfo: African green monkey, TC50, host cell Vero, Dengue Virus 2 table
Label scheme for CC50: low bracket = under 20 µM, middle bracket = from 20 µM up to 40 µM, high bracket = 40 µM and over

**Q:** Any idea which band CN(/N=C/c1ccc(F)cc1C(=O)O)c1nc(-c2ccccc2Cl)cs1 [Compound 10] is in?
**A:** middle bracket

**Q:** Where would CCN(/N=C/c1ccccc1C(=O)O)c1nc(-c2ccccc2Cl)cs1 [Compound 2] land among the classes by reported CC50?
**A:** middle bracket

**Q:** Please report the category associated with O=C(O)c1cc(F)c(F)cc1/C=N/Nc1nc(-c2ccccc2Cl)cs1 [Compound 23-1] , nothing else.
**A:** high bracket

**Q:** GET /class?item= Cc1sc(N(C)/N=C/c2ccccc2C(=O)O)nc1-c1ccccc1 [Compound 12]
**A:** low bracket

**Q:** Returns: class label. Input: O=C(O)c1ccccc1/C=N/Nc1nc(-c2cc(Cl)ccc2Cl)cs1 [Compound 55]
**A:** high bracket

**Q:** Returns: class label. Input: Cc1ccc(/C=N/N(C)c2nc(-c3ccccc3Cl)cs2)c(C(=O)O)c1 [Compound 9]
**A:** low bracket

**Q:** Using the reported CC50, which band applies to O=C(O)c1cc(F)ccc1/C=N/Nc1nc(-c2ccccc2Cl)cs1 [Compound 10-1] ?
**A:** high bracket

====

Task for the reader: assign each of the following compounds its reported IC50.
System: H3N2 (influenza virus)
protocolSummary: microbe, parasite or virus in culture
conditionInfo: Influenza A virus, H3N2, MDCK
Expressed in nM, but write only the number.

**Q:** Identify measured IC50 associated with CCN(/N=C/c1ccccc1C(=O)O)c1nc(-c2ccccc2Cl)cs1 [Compound 2]
**A:** 1500

**Q:** Quick one: give measured IC50 for O=C(O)c1ccccc1/C=N/Nc1nc(-c2cc(Cl)ccc2Cl)cs1 [Compound 55]
**A:** 12000

**Q:** Name the recorded IC50 of the item Cc1sc(N/N=C/c2ccccc2C(=O)O)nc1-c1ccccc1 [Compound 12-1] in your answer.
**A:** 520

**Q:** Complete the entry with IC50 for O=C(O)c1cc(F)ccc1/C=N/Nc1nc(-c2ccccc2Cl)cs1 [Compound 10-1]
**A:** 310

**Q:** Identify measured IC50 associated with Cc1sc(N(C)/N=C/c2ccccc2C(=O)O)nc1-c1ccccc1 [Compound 12]
**A:** 350

**Q:** Entry O=C(O)c1cc(F)c(F)cc1/C=N/Nc1nc(-c2ccccc2Cl)cs1 [Compound 23-1] needs its IC50 filled in; supply it.
**A:** 260

**Q:** In one line, give reported IC50 of the entry CN(/N=C/c1ccccc1C(=O)O)c1nc(-c2ccccc2Cl)cs1 [Compound 1] .
**A:** 120

**Q:** Identify the reported IC50 for the following entry. CN(/N=C/c1ccc(C(F)(F)F)cc1C(=O)O)c1nc(-c2ccccc2Cl)cs1 [Compound 8]
**A:** 210

====

Could you please report measured CC50 for the items listed next?
protocolSummary: in vitro
conditionInfo: African green monkey, TC50, host cell Vero, RSV table
Field: numeric (µM). Do not append units.

**Q:** Note down CC50 recorded for Cc1sc(N(C)/N=C/c2ccccc2C(=O)O)nc1-c1ccccc1 [Compound 12]
**A:** 21

**Q:** Let me know recorded CC50 for CCN(/N=C/c1ccccc1C(=O)O)c1nc(-c2ccccc2Cl)cs1 [Compound 2] , thanks.
**A:** 29

**Q:** Provide measured CC50 value, entry: O=C(O)c1cc(F)ccc1/C=N/Nc1nc(-c2ccccc2Cl)cs1 [Compound 10-1]
**A:** 50

**Q:** Look up CC50 of CN(/N=C/c1ccc(C(F)(F)F)cc1C(=O)O)c1nc(-c2ccccc2Cl)cs1 [Compound 8] and report it.
**A:** 31

====

Tested on: Zika Virus
protocolSummary: Inhibition of viral replication (CPE) at cellular level, Zika Virus in Vero
conditionInfo: Zika Virus in host cell Vero
measuredAttribute: SI (TC50/IC50)
Lab note: write the figure by itself, no unit.

**Q:** Annotate the compound O=C(O)c1ccccc1/C=N/Nc1nc(-c2ccccc2Cl)cs1 [Compound 16] with its measured SI (TC50/IC50).
**A:** 133

**Q:** Read the entry O=C(O)c1ccccc1/C=N/Nc1nc(-c2cc(Cl)ccc2Cl)cs1 [Compound 55] and write its reported SI (TC50/IC50).
**A:** 206

**Q:** Look up SI (TC50/IC50) of O=C(O)c1cc(F)c(F)cc1/C=N/Nc1nc(-c2ccccc2Cl)cs1 [Compound 23-1] and report it.
**A:** 262

**Q:** Recall and state the measured SI (TC50/IC50) for Cc1sc(N(C)/N=C/c2ccccc2C(=O)O)nc1-c1ccccc1 [Compound 12] .
**A:** 56.5

**Q:** Using the record for Cc1sc(N/N=C/c2ccccc2C(=O)O)nc1-c1ccccc1 [Compound 12-1] , state its measured SI (TC50/IC50).
**A:** 110

**Q:** Retrieve SI (TC50/IC50) measured for Cc1ccc(/C=N/Nc2nc(-c3ccccc3Cl)cs2)c(C(=O)O)c1 [Compound 9-1] and print it.
**A:** 127

**Q:** Please report the measured SI (TC50/IC50) for CN(/N=C/c1ccccc1C(=O)O)c1nc(-c2ccccc2Cl)cs1 [Compound 1]
**A:** 130

**Q:** Item O=C(O)c1cc(F)ccc1/C=N/Nc1nc(-c2ccccc2Cl)cs1 [Compound 10-1] : provide SI (TC50/IC50)
**A:** 523

**Q:** Check the records and state SI (TC50/IC50) for Cc1ccc(/C=N/N(C)c2nc(-c3ccccc3Cl)cs2)c(C(=O)O)c1 [Compound 9]
**A:** 100

====

Provide the reported CC50 of each item.
protocolSummary: in vitro
conditionInfo: dog, TC50, host cell MDCK, H1N1 table
Express it in µM; write the number only.

**Q:** State its CC50 for this molecule: O=C(O)c1ccccc1/C=N/Nc1nc(-c2ccccc2)cs1 [Compound 18]
**A:** 124

**Q:** Note CC50 for the molecule shown: O=C(O)c1c(F)cccc1/C=N/Nc1nc(-c2ccccc2Cl)cs1 [Compound 58]
**A:** 254

**Q:** Quick one: give measured CC50 for CCc1sc(N/N=C/c2ccccc2C(=O)O)nc1-c1ccccc1Cl [Compound 14]
**A:** 88

**Q:** Specify CC50 for O=C(O)c1ccccc1/C=N/N(CCO)c1nc(-c2ccccc2Cl)cs1 [Compound 7] and stop.
**A:** 355

**Q:** Give CC50 for CCCN(/N=C/c1ccccc1C(=O)O)c1nc(-c2ccccc2Cl)cs1 [Compound 3]
**A:** 86

**Q:** Quickly give me recorded CC50 for CCC(C)N(/N=C/c1ccccc1C(=O)O)c1nc(-c2ccccc2Cl)cs1 (stereo not drawn) [Compound 5]
**A:** 68

**Q:** Please indicate CC50 recorded for Cc1sc(N(C)/N=C/c2ccccc2C(=O)O)nc1-c1ccccc1Cl [Compound 13]
**A:** 87

**Q:** Give the reported value of CC50 for this record: CN(/N=C/c1ccccc1C(=O)O)c1nc(-c2cccc(Cl)c2)cs1 [Compound 21]
**A:** 41

**Q:** Hello, please tell me recorded CC50 for this one: Cc1sc(N/N=C/c2ccccc2C(=O)O)nc1-c1ccccc1 [Compound 17]
**A:** 561

====

Would you kindly list CC50 for each of these molecules?
protocolSummary: in vitro
conditionInfo: dog, TC50, host cell MDCK, H3N2 table
Your answer should be a plain number; it is taken to be in µM.

**Q:** State, in one line, measured CC50 of `CC(C)N(/N=C/c1ccccc1C(=O)O)c1nc(-c2ccccc2Cl)cs1`
**A:** 35

**Q:** Report CC50 for `CN(/N=C/c1ccccc1C(=O)O)c1nc(-c2cccc(Cl)c2)cs1`
**A:** 49

**Q:** Identify measured CC50 associated with CCCC(C)N(/N=C/c1ccccc1C(=O)O)c1nc(-c2ccccc2Cl)c(C)s1 (stereo not drawn)
**A:** 415

**Q:** Given `O=C(O)c1ccccc1/C=N/N(CCO)c1nc(-c2ccccc2Cl)cs1` , respond with its CC50.
**A:** 124

**Q:** Identify CC50 associated with the molecule `Cc1sc(N/N=C/c2ccccc2C(=O)O)nc1-c1ccccc1`
**A:** 94

**Q:** Given `Cc1sc(N/N=C/c2ccccc2C(=O)O)nc1-c1ccccc1Cl` , respond with its CC50.
**A:** 88

====

protocolSummary: Determination of TC50 (half toxicity concentration) in RD cells
Type: cell-based
conditionInfo: human, host cell RD, EV71 table
measuredAttribute: CC50 (nM)
Your answer should be a plain number; it is taken to be in nM.

**Q:** Return reported CC50. Input compound: Cc1sc(N(C)/N=C/c2ccccc2C(=O)O)nc1-c1ccccc1 [Compound 12]
**A:** 1000

**Q:** State its CC50 for this compound: Cc1sc(N/N=C/c2ccccc2C(=O)O)nc1-c1ccccc1 [Compound 12-1]
**A:** 2000

**Q:** Using known records, supply CC50 for CN(/N=C/c1ccccc1C(=O)O)c1nc(-c2ccccc2Cl)cs1 [Compound 1]
**A:** 1000

**Q:** Quote CC50 reported for O=C(O)c1ccccc1/C=N/Nc1nc(-c2ccccc2Cl)cs1 [Compound 16] please.
**A:** 1000

**Q:** Supply recorded CC50 for CCN(/N=C/c1ccccc1C(=O)O)c1nc(-c2ccccc2Cl)cs1 [Compound 2] here.
**A:** 1000

**Q:** Please indicate CC50 recorded for Cc1ccc(/C=N/Nc2nc(-c3ccccc3Cl)cs2)c(C(=O)O)c1 [Compound 9-1]
**A:** 3000

**Q:** Note CC50 for the compound shown: O=C(O)c1ccccc1/C=N/Nc1nc(-c2cc(Cl)ccc2Cl)cs1 [Compound 55]
**A:** 3100

**Q:** Determine its reported CC50: O=C(O)c1cc(F)ccc1/C=N/Nc1nc(-c2ccccc2Cl)cs1 [Compound 10-1]
**A:** 1000

**Q:** Annotate the compound O=C(O)c1cc(C(F)(F)F)ccc1/C=N/Nc1nc(-c2ccccc2Cl)cs1 [Compound 8-1] with its measured CC50.
**A:** 2000

**Q:** For CN(/N=C/c1ccc(C(F)(F)F)cc1C(=O)O)c1nc(-c2ccccc2Cl)cs1 [Compound 8] , write its CC50.
**A:** 1000

**Q:** Please indicate CC50 recorded for O=C(O)c1cc(F)c(F)cc1/C=N/Nc1nc(-c2ccccc2Cl)cs1 [Compound 23-1]
**A:** 2000

**Q:** Report CC50 for Cc1ccc(/C=N/N(C)c2nc(-c3ccccc3Cl)cs2)c(C(=O)O)c1 [Compound 9]
**A:** 1000

**Q:** Please look at this compound and report its CC50: CN(/N=C/c1ccc(F)cc1C(=O)O)c1nc(-c2ccccc2Cl)cs1 [Compound 10]
**A:** 500
